assay_target: T1, human calcitonin receptor (human, UniProt P30988 25-474)
T1 construct: whole, on cells; membranes of stably transfected BHK cells (Assay VII); also called hCTR; hCT
T1 sequence (looked up): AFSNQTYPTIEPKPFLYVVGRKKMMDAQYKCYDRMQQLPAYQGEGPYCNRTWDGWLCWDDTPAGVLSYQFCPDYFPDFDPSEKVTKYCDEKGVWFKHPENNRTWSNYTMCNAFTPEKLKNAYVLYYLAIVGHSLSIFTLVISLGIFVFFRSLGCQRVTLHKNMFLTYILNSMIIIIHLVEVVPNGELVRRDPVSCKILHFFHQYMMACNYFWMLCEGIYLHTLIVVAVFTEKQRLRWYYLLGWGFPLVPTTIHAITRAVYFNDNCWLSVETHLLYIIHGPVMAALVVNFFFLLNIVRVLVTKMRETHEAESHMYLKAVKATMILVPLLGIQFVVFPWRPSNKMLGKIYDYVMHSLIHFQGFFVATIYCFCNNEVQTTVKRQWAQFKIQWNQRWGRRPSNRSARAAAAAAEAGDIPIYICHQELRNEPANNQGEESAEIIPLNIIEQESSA
measurement_description: IC50 on human calcitonin receptor divided by IC50 on human amylin receptor (SPA competition)
Numbered stars: 1 amine (or outer) side, 2 acyl side, 3 side chain; on linkers, the order of the positions; unused ones are H or OH. Bridge positions count the residues as written; N and C are the ends. Side chains are listed from the residue outwards. Ends that are not written are not given here. * marks the point of attachment. C20 diacid = O=C(O)CCCCCCCCCCCCCCCCCCC(=O)*; γGlu = O=C(O)[C@H](CCC(=O)[*:2])N[*:1]; AEEA = NCCOCCOCC(=O)O
Attribute: Ratio hCT/hAmylin binding
quantity_name: Ratio hCT/hAmylin binding

>>> readout_number("K(C20 diacid)CNTATCATQRLANFLRHSSPNFGAIPSSTNVGSNTY-NH2 (disulfide 2-7 (inferred), analogue of human amylin; also called compound 42) [N^ε1-19-carboxynonadecanoyl-[Arg17,Pro21,Pro27]-h-amylin]")
30.7
>>> readout_number("{C20 diacid-γGlu}-KCNTATCATQRLAEFLRHSSPNFGAIPSSTNVGKNTY-NH2 (disulfide 2-7 (inferred), analogue of human amylin; also called compound 36)")
15.7
>>> readout_number("{C20 diacid-γGlu}-GRCNTATCATQRLANFLRHSSPNFGAIPSSTNVGSNTY-NH2 (disulfide 3-8 (inferred), analogue of human amylin extended by Gly at the N-terminus; also called compound 46) [N^-1-[(4S)-4-carboxy-4-(19-carboxynonadecanoylamino)butanoyl]-Gly[Arg1,Arg17,Pro21,Pro27]-h-amylin]")
48.9
>>> readout_number("K([AEEA-γGlu-C20 diacid])CNTATCATQRLANFLRHSSPNFGAIPSSTNVGPNTY-NH2 (disulfide 2-7 (inferred), analogue of human amylin; also called compound 50)")
36
>>> readout_number("K([γGlu-γGlu-C20 diacid])CNTATCATQRLADFLRHSSPNFGAIPSSTNVGSDTY-NH2 (disulfide 2-7 (inferred), analogue of human amylin; also called compound 2)")
47.5
>>> readout_number("{C20 diacid-γGlu}-KCNTATCATQRLANFLRHSSPNFGAIPSSTPVGSETY-NH2 (disulfide 2-7 (inferred), analogue of human amylin; also called compound 28)")
20.5
>>> readout_number("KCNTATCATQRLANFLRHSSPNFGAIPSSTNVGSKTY (C20 diacid-gGlu on the alpha amino group of the N-terminal residue (Lys 1); disulfide bridge between the two Cys residues; C-terminal amide, analogue of human amylin; also called compound 34) [N^α1-[(4S)-4-carboxy-4-(19-carboxynonadecanoylamino)butanoyl]-[Arg17,Pro21,Pro27,Lys35]-h-amylin]")
64.4
>>> readout_number("{C20 diacid-γGlu-γGlu}-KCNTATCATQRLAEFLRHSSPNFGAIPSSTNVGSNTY-NH2 (disulfide 2-7 (inferred), analogue of human amylin; the name is printed with N^α1 twice; also called compound 15)")
26
>>> readout_number("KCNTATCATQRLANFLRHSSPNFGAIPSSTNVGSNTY (C20 diacid-gGlu on the alpha amino group of the N-terminal residue (Lys 1); disulfide bridge between the two Cys residues; C-terminal amide, analogue of human amylin; also called compound 21) [N^α1-[(4S)-4-carboxy-4-(19-carboxynonadecanoylamino)butanoyl]-[Arg17,Pro21,Pro27]-h-amylin]")
24.4
>>> readout_number("K([γGlu-C20 diacid])CNTATCATQRLAEFLRHSSPNFGAIPSSTNVGSRTY-NH2 (disulfide 2-7 (inferred), analogue of human amylin; also called compound 51)")
37.5
